Entry source: patent US20200299384A1

measured_target: T1, Human CD3 Gamma (CD3gamma) protein (human, UniProt P09693 23-116)
T1 construct: extracellular domain; Bought protein
T1 sequence (P09693 23-116): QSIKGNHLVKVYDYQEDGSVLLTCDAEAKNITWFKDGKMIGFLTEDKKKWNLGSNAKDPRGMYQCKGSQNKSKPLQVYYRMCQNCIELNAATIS
protocol_description: ELISA, antigen coated on plate
measurement_name: binding result

binder	result
WBP3311_2.844.8 (antibody, V domains shown, Mouse monoclonal antibody from hybridoma; also called W3311-2.844.8; clone 2.844.8) VH: QVQLQQSGPELVKPGASVRISCKASGFAFTDYYIHWVKQRPGQGLEWIGWISPGNVNTKYNENFKGRATLTADLSSSTAYMQLSSLTSEDSAVYFCARDGYSLYYFDYWGQGTTLTVSS VL: DIVMSQSPSSLTVSAGEKVTMSCKSSQSLLNSRTRKNYLAWYQQKPGQSPKLLIYWASTRESGVPDRFTGSGSGTAFTLTISGVQAEDLAVYFCTQSHTLRTFGGGTKLEIK	no binding
WBP3311_2.400.5 (antibody, V domains shown, Mouse monoclonal antibody from hybridoma; also called W3311-2.400.5) VH: QVQLQQSGPELVNPGASVKISCKASGYSFTNYYLHWVKQRPGQGLEWIGWIFPESDNTKYNEKLKGKATLTADTSSDTAYMHLSSLTFEDSAVYFCARDSVGNYFFDFWGQGTTLTVSS VL: DIVMSQSPSSLAVSAGEKVTMRCKSSQSLVNNRTRKNYLAWYQQKPGQPPKLLIYWASTRESGVPDRFTGSGSGTDFTLTISSVQAEDLAVYYCAQSFILRTFGGGTKLEIK	no binding
WBP3311_2.482.5 (antibody, V domains shown, Mouse monoclonal antibody from hybridoma; also called W3311-2.482.5) VH: QVQLQQSGPELVKPGSSVKISCKPSGYTFTTYYIHWVKQRPGQGLEWIGWIFPGSDNIKYNENFKDKATLTADTSSSTAYMQLSSLTSEDSAVYFCARDSVSRYYFDYWGQGTILTVSS VL: DIVMSQSPSSLAVSAGEKVTMSCKSSQSLVNDRTRKNYLAWYQQKPGLSPKLLIYWASTRESGVPDRFTGSGSGTDFTLTISSVQAEDLAVYYCAQSFILRTFGGGTKLEIK	no binding
